Value source: patent US11236055B2

- measuredOn: mouse TGR5 receptor (Mus musculus)
- Construct: expressed in transfected cells; host or cells: HEK293-EBNA (293 c18, ATCC CRL10852), Hygromycin B selection
- Sequence (Q80SS6 whole entry): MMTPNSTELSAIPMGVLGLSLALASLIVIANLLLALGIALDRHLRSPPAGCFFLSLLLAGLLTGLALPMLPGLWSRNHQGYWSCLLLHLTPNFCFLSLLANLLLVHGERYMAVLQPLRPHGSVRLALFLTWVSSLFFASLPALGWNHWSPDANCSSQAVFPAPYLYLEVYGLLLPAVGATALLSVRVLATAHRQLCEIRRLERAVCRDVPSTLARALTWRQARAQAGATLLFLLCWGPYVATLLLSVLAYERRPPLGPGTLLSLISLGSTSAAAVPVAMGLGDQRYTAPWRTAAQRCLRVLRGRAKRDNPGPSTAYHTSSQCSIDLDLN
- experimentDescription: Mouse TGR5 cAMP production assay (HTRF, Cisbio cAMP HiRange)
- Type: cell-based
- experimentalConditions: HEK293-EBNA cells overexpressing mouse TGR5, HTRF cAMP HiRange; coded A-D
EC50 by entry:

Known results for compounds:
Cc1cnccc1-c1cccc(CCN(CCCC(=O)NCCS(=O)(=O)O)S(=O)(=O)c2cccc(Cl)c2C)c1 [Compound 20BT]
1 to 30 µM
Cc1cnccc1-c1cccc(C(C)(C)N(CCCC(=O)N[C@H](C)C(=O)O)S(=O)(=O)c2cccc(Cl)c2C)c1 [Compound 21AE]
< 0.1 µM
Cc1cnccc1-c1cccc([C@H](C)N(CCCCC(=O)NCCOCCNS(=O)(=O)CC(=O)O)S(=O)(=O)c2cccc(Cl)c2C)c1 [Compound 26AD]
< 0.1 µM
COc1cnccc1-c1cccc(C(C)(C)NS(=O)(=O)c2cc(Cl)ccc2Cl)c1 [Compound 2BE]
0.1 to 0.999 µM
Cc1nccc(-c2cccc([C@H](C)NS(=O)(=O)c3cccc(Cl)c3C)c2)c1C [Compound 7AB]
1 to 30 µM
Cc1c(Cl)cccc1S(=O)(=O)N(CCCC(=O)O)[C@@H](C)c1cccc(-c2ccncc2)c1 [Compound 14AD]
0.1 to 0.999 µM

## Input Fetch value of EC50 on mouse TGR5 receptor (Mus musculus) for Cc1cnccc1-c1cccc([C@H](C)N(CCCC(=O)NC[C@@H](O)[C@H](O)[C@@H](O)[C@@H](O)CO)S(=O)(=O)c2cccc(Cl)c2C)c1 [Compound 20AK] .
## Output 0.1 to 0.999 µM

###

pEC50 by entry:
- measuredOn: human TGR5 receptor (Homo sapiens, UniProt Q8TDU6)
- Sequence (Q8TDU6 whole entry): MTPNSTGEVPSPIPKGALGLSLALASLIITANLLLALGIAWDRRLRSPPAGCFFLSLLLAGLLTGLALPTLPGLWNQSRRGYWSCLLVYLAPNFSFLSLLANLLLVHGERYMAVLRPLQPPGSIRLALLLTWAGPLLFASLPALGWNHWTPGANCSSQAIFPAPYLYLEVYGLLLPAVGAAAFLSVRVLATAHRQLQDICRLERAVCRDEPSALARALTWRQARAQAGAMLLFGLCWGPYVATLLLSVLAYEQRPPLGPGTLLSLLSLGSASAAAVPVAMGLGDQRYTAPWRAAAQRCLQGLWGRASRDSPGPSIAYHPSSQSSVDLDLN
- experimentDescription: Human TGR5 cAMP production assay
- experimentalConditions: human TGR5, luminescent cAMP assay; coded A-D; read-out: Human TGR5 Lum. cAMP Activity (EC50)
pEC50: −log10 of the molar value.

Known results for compounds:
COc1cccc(S(=O)(=O)N2CCN(C(=O)CCC(=O)O)CC2c2cccc(-c3ccncc3C)c2)c1 (stereo not drawn) [Compound 46AJ]
4.52 to 6.00
O=S(=O)(NCc1cccc(-c2ccncc2)c1)c1cccc(Cl)c1 [Compound 2AJ]
4.52 to 6.00
Cc1noc(C)c1-c1cccc(CNS(=O)(=O)c2cc(C(F)(F)F)cc(C(F)(F)F)c2)c1 [Compound 2AH]
4.52 to 6.00

## Input Fetch value of pEC50 on human TGR5 receptor (Homo sapiens, UniProt Q8TDU6) for Cc1noc(C)c1-c1cccc(CNS(=O)(=O)c2ccc(Cl)cc2)c1 [Compound 1AB] .
## Output 4.52 to 6.00

## Input Fetch value of pEC50 on human TGR5 receptor (Homo sapiens, UniProt Q8TDU6) for Cc1cnccc1-c1cccc(CN(CCCNC(=O)NCS(=O)(=O)O)S(=O)(=O)c2cccc(Cl)c2C)c1 [Compound 28AI] .
## Output 6.00 to 7.00

## Input Fetch value of pEC50 on human TGR5 receptor (Homo sapiens, UniProt Q8TDU6) for Cc1c(Cl)cccc1S(=O)(=O)N1CCN(C(=O)CS(=O)(=O)O)CC1c1cccc(-c2ccncc2Cl)c1 (stereo not drawn) [Compound 49AE] .
## Output 6.00 to 7.00

## Input Fetch value of pEC50 on human TGR5 receptor (Homo sapiens, UniProt Q8TDU6) for Cc1cnccc1-c1cccc(C2CN(CCCC(=O)NCS(=O)(=O)O)CCN2S(=O)(=O)c2cccc(Cl)c2C)c1 (stereo not drawn) [Compound 53] .
## Output 6.00 to 7.00

## Input Fetch value of pEC50 on human TGR5 receptor (Homo sapiens, UniProt Q8TDU6) for CCc1cnccc1-c1cccc([C@H](C)NS(=O)(=O)c2ccccc2C(F)(F)F)c1 [Compound 5AQ] .
## Output > 7.00
